Reported values of remaining at 4 h for individual entries
Target Or System: neutral endopeptidase (NEP) (Homo sapiens, UniProt P08473)
Sequence (P08473 whole entry): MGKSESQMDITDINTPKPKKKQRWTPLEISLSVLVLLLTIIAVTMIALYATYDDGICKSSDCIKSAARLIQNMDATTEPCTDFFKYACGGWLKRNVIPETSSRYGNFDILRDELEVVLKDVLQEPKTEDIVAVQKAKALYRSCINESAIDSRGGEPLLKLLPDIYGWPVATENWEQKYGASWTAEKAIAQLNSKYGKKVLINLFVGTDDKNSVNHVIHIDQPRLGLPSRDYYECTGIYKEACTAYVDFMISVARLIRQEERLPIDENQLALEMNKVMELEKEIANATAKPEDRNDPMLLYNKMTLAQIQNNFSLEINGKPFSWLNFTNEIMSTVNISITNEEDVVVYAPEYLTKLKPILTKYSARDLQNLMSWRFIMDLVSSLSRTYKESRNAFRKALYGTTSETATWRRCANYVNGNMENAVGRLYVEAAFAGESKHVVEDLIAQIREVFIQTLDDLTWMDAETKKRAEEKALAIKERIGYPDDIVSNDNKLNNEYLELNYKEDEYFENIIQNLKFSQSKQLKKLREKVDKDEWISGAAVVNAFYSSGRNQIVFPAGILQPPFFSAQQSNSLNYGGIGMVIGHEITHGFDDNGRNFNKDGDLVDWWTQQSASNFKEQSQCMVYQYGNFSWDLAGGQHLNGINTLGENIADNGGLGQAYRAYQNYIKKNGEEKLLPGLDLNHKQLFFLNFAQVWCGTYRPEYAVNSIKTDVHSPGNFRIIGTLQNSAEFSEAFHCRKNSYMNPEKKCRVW
Assay Method Text: in vitro
Cond: isolated enzyme neprilysin, pH 7.5
Bridge positions count the residues as written; N and C are the ends. Ends that are not written are not given here.
Measurement Kind: remaining at 4 h (%)

Monomer Sequence	Quantitative Result
EEEEEESGGGGSGGGGSGGGGGLSKGCFGLKLDRIGSMSGLGC (disulfide 27-43) [C1(E6) [BC1]]	99
EEEEEEHGPQGQEHPNARKYKGANKKGLSKGCFGLKLDRIGSMSGLGC (disulfide 32-48) [KA1(E6)]	108
EEEEEESGGGGSGGGKGANKQGLSKGCFGLKLDRIGSMSGLGC (disulfide 27-43) [C6(E6) [BC6]]	98
EEEEEEPSSAAPQPNAPSTSAGLSKGCFGLKLDRIGSMSGLGC (disulfide 27-43) [C3(E6) [BC3]]	100
EEEEEESGGGGSGGGQGANQQGLSKGCFGLKLDRIGSMSGLGC (disulfide 27-43) [C5(E6) [BC5]]	100
EEEEEESGGGGSGGGQGANQKGLSKGCFGLKLDRIGSMSGLGC (disulfide 27-43) [C10(E6) [BC10]]	102
EEEEEESGGGGSGGGKGANQKGLSKGCFGLKLDRIGSMSGLGC (disulfide 27-43) [C7(E6) [BC7]]	98
EEEEEEASTSPANPQPAASSPGLSKGCFGLKLDRIGSMSGLGC (disulfide 27-43) [C2(E6) [BC2]]	101
EEEEEESGGGGSGGGKGANKKGLSKGCFGLKLDRIGSMSGLGC (disulfide 27-43) [C4(E6) [BC4]]	94
EEEEEESGGGGSGGGKGANQQGLSKGCFGLKLDRIGSMSGLGC (disulfide 27-43) [C9(E6) [BC9]]	98
GLSKGCFGLKLDRIGSMSGLGCGGGGSGGGGSGGGGDDDDDD (disulfide 6-22) [CNP-14AAlinker-D6 [C4]]	75
EEEEEESGGGGSGGGQGANKQGLSKGCFGLKLDRIGSMSGLGC (disulfide 27-43) [C11(E6) [BC11]]	102
DDDDDDGGGGSGGGGSGGGGGLSKGCFGLKLDRIGSMSGLGC (disulfide 26-42) [D6-14AAlinker-CNP [C3]]	101
EEEEEESGGGGSGGGQGANKKGLSKGCFGLKLDRIGSMSGLGC (disulfide 27-43) [C8(E6) [BC8]]	103
EEEEEEHKLRGQEHPNARKYKGANKKGLSKGCFGLKLDRIGSMSGLGC (disulfide 32-48) [KB1(E6)]	107

====

Reported values of Rescue Ratio Average for individual entries
Target Or System: NPR-B (Homo sapiens, UniProt P20594)
Sequence (P20594 23-1047): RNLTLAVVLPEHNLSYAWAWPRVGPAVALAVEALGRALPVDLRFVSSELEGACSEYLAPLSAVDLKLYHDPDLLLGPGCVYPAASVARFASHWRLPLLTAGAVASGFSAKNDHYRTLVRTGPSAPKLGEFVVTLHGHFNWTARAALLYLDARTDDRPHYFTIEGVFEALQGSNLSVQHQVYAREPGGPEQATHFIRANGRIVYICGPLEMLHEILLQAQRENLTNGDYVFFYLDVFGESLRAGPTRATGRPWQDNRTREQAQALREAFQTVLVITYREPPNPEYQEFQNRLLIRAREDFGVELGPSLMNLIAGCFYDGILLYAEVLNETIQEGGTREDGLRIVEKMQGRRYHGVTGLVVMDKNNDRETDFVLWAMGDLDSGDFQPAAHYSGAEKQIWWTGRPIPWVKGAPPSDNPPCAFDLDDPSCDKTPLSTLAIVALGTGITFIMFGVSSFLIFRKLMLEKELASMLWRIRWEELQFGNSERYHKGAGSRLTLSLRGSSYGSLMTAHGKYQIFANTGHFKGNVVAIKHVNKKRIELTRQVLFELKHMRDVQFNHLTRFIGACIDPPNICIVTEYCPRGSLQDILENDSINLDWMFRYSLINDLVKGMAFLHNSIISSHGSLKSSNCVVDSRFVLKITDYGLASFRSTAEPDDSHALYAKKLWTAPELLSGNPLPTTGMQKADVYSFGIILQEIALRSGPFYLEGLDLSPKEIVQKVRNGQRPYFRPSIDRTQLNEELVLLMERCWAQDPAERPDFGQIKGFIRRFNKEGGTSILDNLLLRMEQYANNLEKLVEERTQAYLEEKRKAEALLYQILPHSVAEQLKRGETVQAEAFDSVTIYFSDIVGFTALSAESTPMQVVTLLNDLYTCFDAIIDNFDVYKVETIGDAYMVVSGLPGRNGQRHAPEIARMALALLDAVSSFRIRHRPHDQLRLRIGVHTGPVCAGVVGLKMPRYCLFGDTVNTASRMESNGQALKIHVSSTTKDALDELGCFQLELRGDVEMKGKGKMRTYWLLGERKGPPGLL
Assay Method Text: Whole cell guanylyl cyclase (cGMP) assay, NPR-B
Format: cell-based
Design: expressed in transfected cells
Bridge positions count the residues as written; N and C are the ends. Ends that are not written are not given here.
Measurement Kind: Rescue Ratio Average

Monomer Sequence	Measurement Kind	Quantitative Result
EEEEEEPSSAAPQPNAPSTSAGLSKGCFGLKLDRIGSMSGLGC (disulfide 27-43) [C3(E6) [BC3]]	Rescue Ratio Average	199
EEEEEESGGGGSGGGKGANKKGLSKGCFGLKLDRIGSMSGLGC (disulfide 27-43) [C4(E6) [BC4]]	Rescue Ratio Average	18
GLSKGCFGLKLDRIGSMSGLGCGGGGSGGGGSGGGGDDDDDD (disulfide 6-22) [CNP-14AAlinker-D6 [C4]]	Rescue Ratio Average	545
EEEEEESGGGGSGGGGSGGGGGLSKGCFGLKLDRIGSMSGLGC (disulfide 27-43) [C1(E6) [BC1]]	Rescue Ratio Average	122
EEEEEESGGGGSGGGQGANQKGLSKGCFGLKLDRIGSMSGLGC (disulfide 27-43) [C10(E6) [BC10]]	Rescue Ratio Average	90
EEEEEESGGGGSGGGQGANKKGLSKGCFGLKLDRIGSMSGLGC (disulfide 27-43) [C8(E6) [BC8]]	Rescue Ratio Average	52
EEEEEESGGGGSGGGQGANKQGLSKGCFGLKLDRIGSMSGLGC (disulfide 27-43) [C11(E6) [BC11]]	Rescue Ratio Average	120

====

Target Or System: NPR-B (Homo sapiens)
Assay Method Text: Whole cell guanylyl cyclase (cGMP) assay, NPR-B
Assay type: cell-based
Design: expressed in transfected cells
Bridge positions count the residues as written; N and C are the ends. Ends that are not written are not given here.

Monomer Sequence	Rescue range
EEEEEEPSSAAPQPNAPSTSAGLSKGCFGLKLDRIGSMSGLGC (disulfide 27-43) [C3(E6) [BC3]]	280 to 3927 nM
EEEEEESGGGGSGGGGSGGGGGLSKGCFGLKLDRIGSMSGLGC (disulfide 27-43) [C1(E6) [BC1]]	289 to 1733 nM
EEEEEESGGGGSGGGKGANKQGLSKGCFGLKLDRIGSMSGLGC (disulfide 27-43) [C6(E6) [BC6]]	132 to 973 nM
EEEEEEASTSPANPQPAASSPGLSKGCFGLKLDRIGSMSGLGC (disulfide 27-43) [C2(E6) [BC2]]	424 to 20000 nM
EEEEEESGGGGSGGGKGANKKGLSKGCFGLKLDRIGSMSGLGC (disulfide 27-43) [C4(E6) [BC4]]	46 to 219 nM
EEEEEESGGGGSGGGKGANQQGLSKGCFGLKLDRIGSMSGLGC (disulfide 27-43) [C9(E6) [BC9]]	183 to 1358 nM
EEEEEESGGGGSGGGQGANQQGLSKGCFGLKLDRIGSMSGLGC (disulfide 27-43) [C5(E6) [BC5]]	334 to 1899 nM
EEEEEEHKLRGQEHPNARKYKGANKKGLSKGCFGLKLDRIGSMSGLGC (disulfide 32-48) [KB1(E6)]	13.4 to 78.1 nM
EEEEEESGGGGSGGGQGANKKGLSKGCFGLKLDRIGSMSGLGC (disulfide 27-43) [C8(E6) [BC8]]	116 to 779 nM
EEEEEEHGPQGQEHPNARKYKGANKKGLSKGCFGLKLDRIGSMSGLGC (disulfide 32-48) [KA1(E6)]	21.6 to 102 nM
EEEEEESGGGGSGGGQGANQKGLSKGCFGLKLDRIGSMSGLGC (disulfide 27-43) [C10(E6) [BC10]]	213 to 1253 nM
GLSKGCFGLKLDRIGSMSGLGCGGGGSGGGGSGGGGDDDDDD (disulfide 6-22) [CNP-14AAlinker-D6 [C4]]	900 to 10000 nM
EEEEEESGGGGSGGGKGANQKGLSKGCFGLKLDRIGSMSGLGC (disulfide 27-43) [C7(E6) [BC7]]	177 to 1193 nM
EEEEEESGGGGSGGGQGANKQGLSKGCFGLKLDRIGSMSGLGC (disulfide 27-43) [C11(E6) [BC11]]	289 to 1662 nM

====

Reported values of EC50 for individual entries
Target Or System: NPR-B (Homo sapiens)
Assay Method Text: Whole cell guanylyl cyclase (cGMP) assay, NPR-B
Format: cell-based
Parameters: expressed in transfected cells
Cond: EC50
Bridge positions count the residues as written; N and C are the ends. Ends that are not written are not given here.

Monomer Sequence	EC50, nM
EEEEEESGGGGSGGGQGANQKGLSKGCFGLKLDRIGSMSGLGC (disulfide 27-43) [C10(E6) [BC10]]	2470
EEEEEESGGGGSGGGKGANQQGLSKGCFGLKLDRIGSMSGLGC (disulfide 27-43) [C9(E6) [BC9]]	1170
EEEEEEASTSPANPQPAASSPGLSKGCFGLKLDRIGSMSGLGC (disulfide 27-43) [C2(E6) [BC2]]	720

====

Target Or System: NPR-B (Homo sapiens)
Assay Method Text: Whole cell guanylyl cyclase (cGMP) assay, NPR-B
Assay type: cell-based
Set-up: expressed in transfected cells
Bridge positions count the residues as written; N and C are the ends. Ends that are not written are not given here.
Reported values of Rescue Ratio Average for individual entries

Monomer Sequence	Target Or System	Rescue Ratio Average
EEEEEEASTSPANPQPAASSPGLSKGCFGLKLDRIGSMSGLGC (disulfide 27-43) [C2(E6) [BC2]]	NPR-B (Homo sapiens)	803
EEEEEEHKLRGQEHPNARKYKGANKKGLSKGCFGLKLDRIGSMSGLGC (disulfide 32-48) [KB1(E6)]	NPR-B (Homo sapiens)	5.6
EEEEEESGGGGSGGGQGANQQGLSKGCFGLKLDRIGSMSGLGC (disulfide 27-43) [C5(E6) [BC5]]	NPR-B (Homo sapiens)	138
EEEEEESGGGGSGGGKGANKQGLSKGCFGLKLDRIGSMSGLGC (disulfide 27-43) [C6(E6) [BC6]]	NPR-B (Homo sapiens)	63
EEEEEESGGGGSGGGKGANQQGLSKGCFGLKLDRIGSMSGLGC (disulfide 27-43) [C9(E6) [BC9]]	NPR-B (Homo sapiens)	87
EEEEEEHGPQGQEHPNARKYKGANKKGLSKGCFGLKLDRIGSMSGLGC (disulfide 32-48) [KA1(E6)]	NPR-B (Homo sapiens)	8.2
EEEEEESGGGGSGGGKGANQKGLSKGCFGLKLDRIGSMSGLGC (disulfide 27-43) [C7(E6) [BC7]]	NPR-B (Homo sapiens)	80
